# measurement_protocol: Host cell toxicity in the high-content imaging assay
# Format: cell-based
# condition_details: mouse
quantity: CC50 at 72 h

>>> print(df.to_string())
                          smiles_input   result
0  O=C(Cn1ccnc1[N+](=O)[O-])NCc1ccccc1  > 50 µM
